Listed next: entries and their corresponding inhibition of growth at 10 µM.
# Test system: SF-268
# assay_name: Antiproliferative activity against human SF-268 cells assessed as growth inhibition at 10 uM measured after 48 hrs by NCI protocol based SRB assay relative to control
# Type: functional
# applied_conditions: read-out: GI

Solved cases (5 shown):
>>> meas_value("N#Cc1c(-c2ccc(Cl)cc2)nc2c(c(-c3ccccc3)nn2-c2ccccc2)c1-c1ccc(O)cc1")
"54%"
>>> meas_value("N#Cc1c(-c2ccco2)nc2c(c(-c3ccccc3)nn2-c2ccccc2)c1-c1ccc(O)cc1")
"33%"
>>> meas_value("N#Cc1c(-c2ccccc2)nc2c(c(-c3ccccc3)nn2-c2ccccc2)c1-c1ccc(O)cc1")
"45%"
>>> meas_value("Cc1ccc(-c2nc3c(c(-c4ccccc4)nn3-c3ccccc3)c(-c3ccc(O)cc3)c2C#N)cc1")
"40%"
>>> meas_value("COc1cc(-c2c(C#N)c(-c3ccccc3)nc3c2c(-c2ccccc2)nn3-c2ccccc2)ccc1O")
"27%"

Lab request: please report inhibition of growth at 10 µM under test system SF-268 for `COc1cc(-c2c(C#N)c(-c3ccco3)nc3c2c(-c2ccccc2)nn3-c2ccccc2)ccc1O`
25%

###

# Test system: T47D
# assay_name: Antiproliferative activity against human T47D cells assessed as growth inhibition at 10 uM measured after 48 hrs by NCI protocol based SRB assay relative to control
# Assay type: functional
# applied_conditions: read-out: GI
Label MET when inhibition of growth at 10 µM is at or above 40%; otherwise label NOT MET.

>>> label("N#Cc1c(-c2ccc(Cl)cc2)nc2c(c(-c3ccccc3)nn2-c2ccccc2)c1-c1ccc(O)cc1")
"MET"
>>> label("COc1cc(-c2c(C#N)c(-c3ccco3)nc3c2c(-c2ccccc2)nn3-c2ccccc2)ccc1O")
"NOT MET"
>>> label("N#Cc1c(-c2ccccc2)nc2c(c(-c3ccccc3)nn2-c2ccccc2)c1-c1ccc(O)cc1")
"MET"

Is reported inhibition of growth at 10 µM greater than or equal to 40% here: `N#Cc1c(-c2ccco2)nc2c(c(-c3ccccc3)nn2-c2ccccc2)c1-c1ccc(O)cc1`
MET

###

Listed next: entries and their corresponding pIC50.
# Test system: KOPN-8
# assay_name: Antiproliferative activity against human KOPN-8 cells assessed as reduction in cell viability incubated for 72 hrs by resazurin dye based assay
# Format: functional
# applied_conditions: KOPN-8, 72 h
Remember, pIC50 is on a log scale: it is -log10 of the molar concentration.

Solved cases (2 shown):
>>> meas_value("N#Cc1c(-c2ccco2)nc2c(c(-c3ccccc3)nn2-c2ccccc2)c1-c1ccc(O)cc1")
5.00
>>> meas_value("Cc1ccc(-c2nc3c(c(-c4ccccc4)nn3-c3ccccc3)c(-c3ccc(O)cc3)c2C#N)cc1")
6.52

For `N#Cc1c(-c2ccc(F)cc2)nc2c(c(-c3ccccc3)nn2-c2ccccc2)c1-c1ccc(O)cc1` , what is its reported pIC50?
5.89

For `Cc1ccc(-c2nc3c(c(-c4ccccc4)nn3-c3ccccc3)c(-c3ccc4c(c3)OCO4)c2C#N)cc1` , what is its reported pIC50?
6.15

For `COc1ccc(-c2nc3c(c(-c4ccccc4)nn3-c3ccccc3)c(-c3ccc(O)cc3)c2C#N)cc1` , what is its reported pIC50?
6.70

###

# Test system: HCT-116
# assay_name: Antiproliferative activity against human HCT-116 cells assessed as growth inhibition at 10 uM measured after 48 hrs by NCI protocol based SRB assay relative to control
# Type: functional
# applied_conditions: read-out: GI
Label label 1 when inhibition of growth at 10 µM is at or above 60%; otherwise label label 0.

>>> label("COc1cc(-c2c(C#N)c(-c3ccccc3)nc3c2c(-c2ccccc2)nn3-c2ccccc2)ccc1O")
"label 0"

Now take the following compound into account.
Is reported inhibition of growth at 10 µM greater than or equal to 60% here: `N#Cc1c(-c2ccco2)nc2c(c(-c3ccccc3)nn2-c2ccccc2)c1-c1ccc(O)cc1`
label 1

###

Listed next: entries and their corresponding inhibition of growth at 10 µM.
# System: SN12C
# assay_name: Antiproliferative activity against human SN12C cells assessed as growth inhibition at 10 uM measured after 48 hrs by NCI protocol based SRB assay relative to control
# Format: functional
# applied_conditions: read-out: GI
Write the numeric value and append its unit.

For `Cc1ccc(-c2nc3c(c(-c4ccccc4)nn3-c3ccccc3)c(-c3ccc(O)cc3)c2C#N)cc1` , what is its reported inhibition of growth at 10 µM?
47%

For `COc1cc(-c2c(C#N)c(-c3ccco3)nc3c2c(-c2ccccc2)nn3-c2ccccc2)ccc1O` , what is its reported inhibition of growth at 10 µM?
18%

For `N#Cc1c(-c2ccccc2)nc2c(c(-c3ccccc3)nn2-c2ccccc2)c1-c1ccc(O)cc1` , what is its reported inhibition of growth at 10 µM?
39%

For `COc1cc(-c2c(C#N)c(-c3ccccc3)nc3c2c(-c2ccccc2)nn3-c2ccccc2)ccc1O` , what is its reported inhibition of growth at 10 µM?
32%

For `N#Cc1c(-c2ccc(Cl)cc2)nc2c(c(-c3ccccc3)nn2-c2ccccc2)c1-c1ccc(O)cc1` , what is its reported inhibition of growth at 10 µM?
118%

For `N#Cc1c(-c2ccco2)nc2c(c(-c3ccccc3)nn2-c2ccccc2)c1-c1ccc(O)cc1` , what is its reported inhibition of growth at 10 µM?
18%

###

Listed next: entries and their corresponding inhibition of growth at 10 µM.
# Test system: HCT-116
# assay_name: Antiproliferative activity against human HCT-116 cells assessed as growth inhibition at 10 uM measured after 48 hrs by NCI protocol based SRB assay relative to control
# Assay type: functional
# applied_conditions: read-out: GI
The figure you give is taken to be in %; do not add the unit.

>>> meas_value("Cc1ccc(-c2nc3c(c(-c4ccccc4)nn3-c3ccccc3)c(-c3ccc(O)cc3)c2C#N)cc1")
58
>>> meas_value("COc1cc(-c2c(C#N)c(-c3ccco3)nc3c2c(-c2ccccc2)nn3-c2ccccc2)ccc1O")
43
>>> meas_value("N#Cc1c(-c2ccccc2)nc2c(c(-c3ccccc3)nn2-c2ccccc2)c1-c1ccc(O)cc1")
66

For `N#Cc1c(-c2ccc(Cl)cc2)nc2c(c(-c3ccccc3)nn2-c2ccccc2)c1-c1ccc(O)cc1` , what is its reported inhibition of growth at 10 µM?
86
